biological target: Small conductance calcium-activated potassium channel protein 3 (Homo sapiens, UniProt Q9UGI6); experiment: Potentiation of human KCa2.3 expressed in HEK293 cells at -90 mV holding potential measured at 1 to 2 days by patch clamp electrophysiology relative to calcium; type: cell-based
Sequence (Q9UGI6 whole entry): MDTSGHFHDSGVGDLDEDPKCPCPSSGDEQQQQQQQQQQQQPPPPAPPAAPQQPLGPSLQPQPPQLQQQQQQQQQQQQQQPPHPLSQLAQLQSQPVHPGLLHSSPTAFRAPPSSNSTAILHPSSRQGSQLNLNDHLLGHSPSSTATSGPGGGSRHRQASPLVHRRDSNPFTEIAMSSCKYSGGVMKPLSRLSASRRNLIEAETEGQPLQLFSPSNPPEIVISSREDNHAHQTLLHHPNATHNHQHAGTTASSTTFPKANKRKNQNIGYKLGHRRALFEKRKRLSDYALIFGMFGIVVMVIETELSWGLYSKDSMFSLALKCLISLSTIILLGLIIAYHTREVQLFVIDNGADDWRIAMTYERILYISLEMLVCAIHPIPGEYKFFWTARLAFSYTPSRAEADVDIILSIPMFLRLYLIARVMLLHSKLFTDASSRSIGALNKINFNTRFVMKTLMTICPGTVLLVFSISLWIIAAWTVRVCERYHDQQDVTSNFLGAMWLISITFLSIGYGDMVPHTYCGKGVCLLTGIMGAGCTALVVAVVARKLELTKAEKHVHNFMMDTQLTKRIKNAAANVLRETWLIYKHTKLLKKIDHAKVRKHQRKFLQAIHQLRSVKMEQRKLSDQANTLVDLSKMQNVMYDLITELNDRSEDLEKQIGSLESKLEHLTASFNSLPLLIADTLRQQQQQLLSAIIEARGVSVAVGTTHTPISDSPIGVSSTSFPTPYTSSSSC
Quantity: EC50

Any idea what its EC50 is? The molecule is Cc1cc(Nc2ccc(F)c(Cl)c2)nc(-n2nc(C)cc2C)n1
0.19 µM

---

target: Small conductance calcium-activated potassium channel protein 3 (Homo sapiens, UniProt Q9UGI6); experiment: Potentiation of human KCa2.3 expressed in HEK293 cells at -90 mV holding potential measured at 1 to 2 days by patch clamp electrophysiology; format: cell-based
Quantity: pEC50
Quick note: pEC50 means taking -log10 of the concentration in moles per liter.

Any idea what its pEC50 is? The molecule is Cc1cc(Nc2cc(Cl)ccc2F)nc(-n2nc(C)cc2C)n1
6.22

---

target: Small conductance calcium-activated potassium channel protein 2 (Rattus norvegicus); test: Potentiation of rat KCa2.2a expressed in HEK293 cells at 0.01 to 100 uM with -90 mV holding potential measured at 1 to 2 days by patch clamp electrophysiology relative to calcium; assay type: cell-based; details: filed as positive allosteric modulator, dose 0.01-100 µM, time 1-2 day
The compounds listed here are annotated with their Emax.
Please give a number only; it is taken to be in %.

Observe how each entry below is paired with its result.
Cc1cc(NC2CCCCC2)nc(-n2nc(C)cc2C)n1 = 85.6
Cc1cc(Nc2ccc(F)c(Cl)c2)nc(-n2nc(C)cc2C)n1 = 90
CO[C@H]1CC[C@@H](Nc2cc(C)nc(-n3nc(C)cc3C)n2)CC1 = 94.6

Now for another entry.
Any idea what its Emax is? The compound is Cc1cc(Nc2cc(Cl)ccc2F)nc(-n2nc(C)cc2C)n1
90
